assay: basal MM1S mitochondrial membrane potential changes, profiling panel, cell-based, JC-1 fluorescence, 24 h, 100 nL compound (AID 1170); also: test concentration not given here
details: higher = more signal
Returns Met if the recorded z-score is greater than or equal to -0.6, and Not met otherwise.

{"columns": ["compound", "assigned category"],
 "data": [
  ["COc1ccc([Si](C)(C)[C@@H]2[C@@H](CC(=O)N3Cc4ccccc4C[C@H]3CO)O[C@]3(C(=O)N(Cc4cccc(N5C(=O)c6cccc7cccc5c67)c4)c4ccccc43)[C@H]2C)cc1", "Not met"],
  ["C=CCC(OC(C)=O)[C@@H]1[C@@H](N(Cc2cc3ccccc3o2)C(=O)Cc2ccc(F)cc2)c2cc(OCCCO)ccc2N1C(=O)c1ccc2ccccc2c1 (stereo partly drawn)", "Met"],
  ["C[C@H]1NC(=O)[C@@]23C(=O)N[C@@H](Cc4ccccc4)C2[C@H](C)[C@@]2(C)O[C@H]2C3/C=C/C/C=C\\CNC(=O)[C@H](Cc2ccccc2)NC1=O (stereo partly drawn)", "Met"],
  ["C=CCN1C(=O)[C@@]2(CCS(=O)(=O)c3ccccc3)N=C(c3ccc(OCCCO)cc3)O[C@H]2c2ccccc21", "Met"],
  ["O=C1OCC=C[C@H]2OC34C=CCN(Cc5ccccc5)C(=O)[C@H]3N(CCCCCCO)C(=O)[C@@H]4[C@@H]12 (stereo partly drawn)", "Met"],
  ["COCCOC(=O)N1C(=O)[C@@]2(c3cc(C#CC4=CCCCC4)ccc31)[C@H](C(=O)N1CCCCCCC1)[C@H]1C(=O)O[C@H](c3ccccc3)[C@H](c3ccccc3)N1[C@@H]2c1ccc(O)cc1", "Met"],
  ["O=C(NCc1ccccc1)[C@@H]1c2ccccc2C(=O)N(Cc2ccccc2C(F)(F)F)[C@H]1c1ccc(CO)cc1", "Not met"],
  ["CCOC(=O)C[C@H]1[C@H](OC(=O)c2ccccc2-c2ccccc2)[C@@H](NC(=O)c2ccc(-c3ccccc3)cc2)c2cc(OCCCO)ccc2N1C(=O)c1ccc2ccccc2n1", "Not met"],
  ["O=C(N1CCCCC1)[C@@]1(CCS(=O)(=O)c2ccccc2)COC(c2ccc(OCCCO)cc2)=N1", "Not met"],
  ["COc1ccc([Si](C)(C)[C@@H]2[C@@H](CC(=O)N3Cc4ccccc4C[C@H]3CO)O[C@]3(C(=O)N(C)c4ccccc43)[C@H]2C)cc1", "Not met"]
]}

Hi, just wondering whether CCCCO[C@H]1C[C@H]2C(I)=C[C@@H]1C(=O)[C@]21CO1 shows z-score of -0.6 or higher.
Met

Hi, just wondering whether COc1ccc([Si](C)(C)[C@@H]2[C@@H](CCO)O[C@]3(C(=O)N(Cc4ccc(N5CCCCC5=O)cc4)c4ccccc43)[C@H]2C)cc1 shows z-score of -0.6 or higher.
Met

Hi, just wondering whether CN(C)C(=O)C1N=C(c2ccc(OCCCO)cc2)N(c2ccccc2)O1 (stereo not drawn) shows z-score of -0.6 or higher.
Not met
